target: UniProt Q9NYK1; assay: Test for evaluating the inhibition of the activation of human TLR7 (SEAP reporter, TLR7/NF-κB/SEAPorter HEK293 cell); conditions: R-848 200 nmol/L, SEAP reporter
Reported IC50 is given for each of the following molecules.
Just the number in µM, nothing appended.

A selection of reference data follows.
{"columns": ["Molecule", "Result Units", "Reported Result"],
 "data": [
  ["CCOc1nc(N)c2nc(-c3cncc(F)c3)n(Cc3ccc(O[C@@H]4CN5CCC4CC5)cc3)c2n1 [Example 66]", "µM", 0.021],
  ["COCCOc1nc(N)c2nc(-c3cnc4ccccc4c3)n(Cc3ccc(CN(C)C)cc3)c2n1 [Example 32]", "µM", 8.6]
]}

Request: API: value(readout=IC50, system=UniProt Q9NYK1) for record CCOc1nc(C)c2nc(-c3cncc(F)c3)n(Cc3cnn(CC4CCN(C)C4)c3)c2n1 (centres unmarked) [Example 279]
Result: 0.04

Request: I'm curious: which IC50 was measured for CCCCOc1nc(C)c2nc(-c3cncc(F)c3)n(Cc3ccc(CN4CCOCC4)cc3)c2n1 [Example 112] tested on UniProt Q9NYK1?
Result: 0.1

----------
molecular target: human TLR7 (Homo sapiens (Human), UniProt Q9NYK1); test: Test for evaluating the inhibition of the activation of human TLR7 (SEAP reporter, TLR7/NF-κB/SEAPorter HEK293 cell); conditions: R-848 200 nmol/L, SEAP reporter
Sequence (Q9NYK1 27-1049): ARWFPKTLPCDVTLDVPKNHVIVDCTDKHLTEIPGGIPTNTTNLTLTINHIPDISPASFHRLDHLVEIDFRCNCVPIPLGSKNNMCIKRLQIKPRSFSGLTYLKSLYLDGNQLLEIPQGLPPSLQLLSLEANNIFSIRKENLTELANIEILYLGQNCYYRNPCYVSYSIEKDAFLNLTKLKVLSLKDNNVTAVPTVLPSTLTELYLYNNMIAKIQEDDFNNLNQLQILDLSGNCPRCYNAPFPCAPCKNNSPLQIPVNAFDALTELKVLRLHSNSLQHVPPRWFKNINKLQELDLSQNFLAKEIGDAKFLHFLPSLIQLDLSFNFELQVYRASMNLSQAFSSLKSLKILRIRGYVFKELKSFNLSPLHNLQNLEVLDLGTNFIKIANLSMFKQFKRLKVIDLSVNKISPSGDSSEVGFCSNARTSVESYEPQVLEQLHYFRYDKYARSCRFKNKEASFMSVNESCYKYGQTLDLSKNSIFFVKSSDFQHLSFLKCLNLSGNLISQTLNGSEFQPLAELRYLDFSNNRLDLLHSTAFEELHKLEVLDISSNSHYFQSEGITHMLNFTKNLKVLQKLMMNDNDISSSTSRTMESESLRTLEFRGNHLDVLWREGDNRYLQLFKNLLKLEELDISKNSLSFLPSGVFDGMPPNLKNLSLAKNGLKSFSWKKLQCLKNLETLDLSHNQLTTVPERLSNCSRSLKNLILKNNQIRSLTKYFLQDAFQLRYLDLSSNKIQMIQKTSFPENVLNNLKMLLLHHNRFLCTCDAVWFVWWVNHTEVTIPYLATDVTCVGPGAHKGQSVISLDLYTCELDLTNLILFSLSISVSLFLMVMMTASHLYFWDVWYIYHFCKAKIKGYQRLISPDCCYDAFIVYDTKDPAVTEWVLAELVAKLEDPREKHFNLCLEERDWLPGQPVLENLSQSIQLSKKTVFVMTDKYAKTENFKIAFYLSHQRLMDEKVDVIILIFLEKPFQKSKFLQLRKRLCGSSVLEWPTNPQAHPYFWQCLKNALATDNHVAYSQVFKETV
Readout Kind: IC50 (nM)
// units = nM; emit number, no label

{"columns": ["Compound", "IC50 (nM)"],
 "data": [
  ["CCOc1nc(C)c2nc(-c3cncc(F)c3)n(Cc3ccc(CN4C[C@@H]5C[C@H]4CN5C)cc3)c2n1", 10],
  ["CCCCOc1nc(N)c2nc(-c3cnc(N)nc3)n(Cc3ccccc3)c2n1", 9600]
]}

We now examine a further compound.
Request: Find the recorded IC50 belonging to CCN1CCC(c2ccc(Cn3c(-c4cccnc4)nc4c(C)nc(OC)nc43)c(F)c2)CC1 and report it.
Result: 18

----------
Measured pIC50 accompanies every entry in the list below.
target: human TLR7 (Homo sapiens (Human), UniProt Q9NYK1); assay: Test for evaluating the inhibition of the activation of human TLR7 (SEAP reporter, TLR7/NF-κB/SEAPorter HEK293 cell); settings: R-848 200 nmol/L, SEAP reporter
// pIC50 here means minus log10 of the molar concentration (mol/L)

Illustrative cases are given below, each with its answer.
{"columns": ["Molecule", "Test System", "Readout Kind", "Reported Result"],
 "data": [
  ["CCCCOc1nc(N)c2nc(-c3cccnc3)n(Cc3ccccc3)c2n1", "human TLR7 (Homo sapiens (Human), UniProt Q9NYK1)", "pIC50", 5.26],
  ["CCOc1nc(N)c2nc(-c3cncc(F)c3)n(Cc3cccc(OCCN4CCCC4)c3)c2n1", "human TLR7 (Homo sapiens (Human), UniProt Q9NYK1)", "pIC50", 7.23],
  ["COc1nc(C)c2nc(-c3cncc(C)c3)n(Cc3ccc(C4CN5CCC4CC5)cc3F)c2n1 (stereo not shown)", "human TLR7 (Homo sapiens (Human), UniProt Q9NYK1)", "pIC50", 8.30],
  ["COc1nc(C)c2nc(-c3cncc(C#N)c3)n(Cc3ccc(OC4CC5CCC(C4)N5C)cc3F)c2n1 (stereo not shown)", "human TLR7 (Homo sapiens (Human), UniProt Q9NYK1)", "pIC50", 7.89],
  ["COc1nc(C)c2nc(-c3cncc(F)c3)n(Cc3ccc(O[C@H]4C[C@H]5CC[C@@H](C4)N5)cc3F)c2n1", "human TLR7 (Homo sapiens (Human), UniProt Q9NYK1)", "pIC50", 8.05]
]}

Request: Could you tell me which pIC50 is on file for CCOc1nc(N)c2nc(-c3cncc(F)c3)n(Cc3ccc(CN4C[C@@H]5C[C@H]4CN5)cc3)c2n1 ?
Result: 6.66

Request: // pIC50 lookup, key: COc1nc(C)c2nc(-c3cncc(F)c3)n(Cc3ccc(CC4CCNCC4)cc3F)c2n1
Result: 7.21
